Test: Plasma concentration in ICR mouse at 100 mg/kg, po after 4 hrs by TF/FVIIa inhibition assay
Format: ADME, organism-based
Parameters: dose 100 mg/kg, route oral
Property Name: concentration at 4 h (ng/mL)
Note: unit ng/mL is implicit; provide only the numeric part.

The reported value for CNc1ccc(-c2ccc(C(=O)N[C@@H](CC(C)C)C(N)=O)cc2C(=O)O)c(C(=O)Nc2ccc(CN)cc2)c1 in terms of concentration at 4 h is 130

----------
Experiment: Plasma concentration in ICR mouse at 100 mg/kg, po after 2 hrs by TF/FVIIa inhibition assay
Type: ADME, organism-based
Set-up: dose 100 mg/kg, route oral
Property Name: concentration at 2 h (ng/mL)
Note: unit ng/mL is implicit; provide only the numeric part.

The reported value for CNc1ccc(-c2ccc(C(=O)N[C@@H](CC(C)C)C(N)=O)cc2C(=O)O)c(C(=O)Nc2cccc(C(N)=O)c2)c1 in terms of concentration at 2 h is 210

----------
Biological target: Coagulation factor VII (Homo sapiens, UniProt P08709)
Sequence (P08709 whole entry): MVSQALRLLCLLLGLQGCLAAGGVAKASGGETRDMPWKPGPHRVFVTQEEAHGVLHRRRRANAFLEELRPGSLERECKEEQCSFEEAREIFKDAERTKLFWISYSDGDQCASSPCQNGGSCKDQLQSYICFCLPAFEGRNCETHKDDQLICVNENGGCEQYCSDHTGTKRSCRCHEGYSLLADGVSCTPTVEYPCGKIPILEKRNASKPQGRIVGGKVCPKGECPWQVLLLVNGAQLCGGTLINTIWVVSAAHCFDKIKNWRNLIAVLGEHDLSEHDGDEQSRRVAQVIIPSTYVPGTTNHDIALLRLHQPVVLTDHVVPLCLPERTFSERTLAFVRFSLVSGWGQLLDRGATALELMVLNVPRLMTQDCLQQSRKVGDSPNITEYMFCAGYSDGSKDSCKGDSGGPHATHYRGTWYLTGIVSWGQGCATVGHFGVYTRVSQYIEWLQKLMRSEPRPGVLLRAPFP
Assay: Inhibition of human TF/FVIIa complex by chromogenic assay
pIC50: −log10 of the molar value.
Use 5 as the dividing line for pIC50, with the line itself on the Fulfilled side and lower values as Not fulfilled.

Below, 2 compounds whose answers are already recorded.
Prompt line: Could you tell me if the measured pIC50 of CNc1ccc(-c2ccc(C(=O)N[C@@H](CC(C)C)C(N)=O)cc2C(=O)O)c(C(=O)Nc2ccc(CN)cc2)c1 reaches 5 or more?
Response line: Fulfilled

Prompt line: Could you tell me if the measured pIC50 of CC(C)CCNC(=O)c1ccc(-c2ccccc2C(=O)Nc2cccc(C(N)=O)c2)c(C(=O)O)c1 reaches 5 or more?
Response line: Not fulfilled

Continuing:
Prompt line: Could you tell me if the measured pIC50 of CC(C)C[C@H](NC(=O)c1ccc(-c2ccccc2C(=O)Nc2cccc(C(N)=O)c2)c(C(=O)O)c1)C(=O)O reaches 5 or more?
Response line: Fulfilled

Prompt line: Could you tell me if the measured pIC50 of CNC(=O)[C@H](CC(C)C)NC(=O)c1ccc(-c2ccccc2C(=O)Nc2cccc(C(N)=O)c2)c(C(=O)O)c1 reaches 5 or more?
Response line: Fulfilled

Prompt line: Could you tell me if the measured pIC50 of CC(C)CNC(=O)c1ccc(-c2ccccc2C(=O)Nc2cccc(C(N)=O)c2)c(C(=O)O)c1 reaches 5 or more?
Response line: Not fulfilled

Prompt line: Could you tell me if the measured pIC50 of CC(C)C[C@H](NC(=O)c1ccc(-c2ccc(NC(C)C)cc2C(=O)Nc2cccc(C(N)=O)c2)c(C(=O)O)c1)C(N)=O reaches 5 or more?
Response line: Fulfilled

Prompt line: Could you tell me if the measured pIC50 of CCNc1ccc(-c2ccc(C(=O)N[C@@H](CC(C)C)C(N)=O)cc2C(=O)O)c(C(=O)Nc2cccc(C(N)=O)c2)c1 reaches 5 or more?
Response line: Fulfilled

----------
Biological target: Trypsin (Homo sapiens, UniProt P07477+P07478+P35030)
Assay: Inhibition of human trypsin by chromogenic assay
Type: protein assay
Below: a set of entries, each annotated with reported IC50.

The reported value for CC(C)CNC(=O)c1ccc(-c2ccccc2C(=O)Nc2ccc(C(=N)N)cc2)c(C(=O)O)c1 in terms of IC50 is 4.8 µM

The reported value for CNc1ccc(-c2ccc(C(=O)N[C@@H](CC(C)C)C(N)=O)cc2C(=O)O)c(C(=O)Nc2cccc(C(N)=O)c2)c1 in terms of IC50 is > 200 µM

Continuing:
The reported value for CNc1ccc(-c2ccc(C(=O)NCC(C)C)cc2C(=O)O)c(C(=O)Nc2cccc(C(N)=O)c2)c1 in terms of IC50 is 4.8 µM

The reported value for CNc1ccc(-c2ccc(C(=O)N[C@@H](CC(C)C)C(=O)O)cc2C(=O)O)c(C(=O)Nc2cccc(C(N)=O)c2)c1 in terms of IC50 is > 200 µM

The reported value for CNc1ccc(-c2ccc(C(=O)N[C@@H](CC(C)C)C(N)=O)cc2C(=O)O)c(C(=O)Nc2ccc(CN)cc2)c1 in terms of IC50 is > 200 µM

----------
Below: a set of entries, each annotated with reported IC50.
Biological target: UniProt:P00742
Sequence (P00742 41-179 limits assumed): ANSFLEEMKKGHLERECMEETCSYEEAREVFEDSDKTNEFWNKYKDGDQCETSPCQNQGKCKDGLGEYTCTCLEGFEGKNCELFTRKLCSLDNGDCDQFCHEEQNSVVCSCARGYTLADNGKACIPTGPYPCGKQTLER
Sequence (P00742 235-488 limits assumed): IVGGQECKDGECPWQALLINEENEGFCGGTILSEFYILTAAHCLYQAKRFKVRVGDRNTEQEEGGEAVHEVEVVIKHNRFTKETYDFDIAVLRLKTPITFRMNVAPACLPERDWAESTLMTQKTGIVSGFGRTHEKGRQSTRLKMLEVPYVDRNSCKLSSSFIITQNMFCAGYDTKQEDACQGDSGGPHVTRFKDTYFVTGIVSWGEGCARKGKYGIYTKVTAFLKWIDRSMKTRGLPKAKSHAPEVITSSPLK

Examples with answers:
Log: UniProt:P00742, compound CNc1ccc(-c2ccc(C(=O)N[C@@H](CC(C)C)C(=O)O)cc2C(=O)O)c(C(=O)Nc2cccc(C(N)=O)c2)c1 , IC50 = > 200 µM

Log: UniProt:P00742, compound CNc1ccc(-c2ccc(C(=O)NCC(C)C)cc2C(=O)O)c(C(=O)Nc2cccc(C(N)=O)c2)c1 , IC50 = > 200 µM

Log: UniProt:P00742, compound CNc1ccc(-c2ccc(C(=O)N[C@@H](CC(C)C)C(N)=O)cc2C(=O)O)c(C(=O)Nc2ccc(CN)cc2)c1 , IC50 = > 200 µM

Then this compound:
Log: UniProt:P00742, compound CC(C)CNC(=O)c1ccc(-c2ccccc2C(=O)Nc2ccc(C(=N)N)cc2)c(C(=O)O)c1 , IC50 = 0.88 µM
